assay-remarks: Plasma pharmacokinetics of GSK3532795, part B
Type: in vivo, human
study-conditions: human, plasma, oral, C24 (%CV), Part B, fed, 80 mg + ATV 400 mg QD
measured-endpoint: concentration at 24 h (ng/mL)
Give the value in ng/mL but do not write ng/mL after it.

Ask | Any idea what its concentration at 24 h is? The compound is C=C(C)[C@@H]1CC[C@]2(NCCN3CCS(=O)(=O)CC3)CC[C@]3(C)[C@H](CC[C@@H]4[C@@]5(C)CC=C(c6ccc(C(=O)O)cc6)C(C)(C)[C@@H]5CC[C@]43C)[C@@H]12
Reply | 2010

###

assay-remarks: Plasma pharmacokinetics of GSK3532795, part A
Assay type: in vivo
study-conditions: human, oral, 20 mg
measured-endpoint: Cmax (ng/mL)
Give the value in ng/mL but do not write ng/mL after it.

Ask | Any idea what its Cmax is? The compound is C=C(C)[C@@H]1CC[C@]2(NCCN3CCS(=O)(=O)CC3)CC[C@]3(C)[C@H](CC[C@@H]4[C@@]5(C)CC=C(c6ccc(C(=O)O)cc6)C(C)(C)[C@@H]5CC[C@]43C)[C@@H]12
Reply | 705

###

assay-remarks: Plasma pharmacokinetics of GSK3532795, part A
Format: in vivo
study-conditions: human, oral, 120 mg
measured-endpoint: Tmax (h)
Give the value in h but do not write h after it.

Ask | Any idea what its Tmax is? The molecule is C=C(C)[C@@H]1CC[C@]2(NCCN3CCS(=O)(=O)CC3)CC[C@]3(C)[C@H](CC[C@@H]4[C@@]5(C)CC=C(c6ccc(C(=O)O)cc6)C(C)(C)[C@@H]5CC[C@]43C)[C@@H]12
Reply | 2.5

###

assay-remarks: Plasma pharmacokinetics of GSK3532795, part A
Format: in vivo
study-conditions: human, oral, 80 mg
measured-endpoint: Tmax (h)
Give the value in h but do not write h after it.

Ask | Any idea what its Tmax is? The compound is C=C(C)[C@@H]1CC[C@]2(NCCN3CCS(=O)(=O)CC3)CC[C@]3(C)[C@H](CC[C@@H]4[C@@]5(C)CC=C(c6ccc(C(=O)O)cc6)C(C)(C)[C@@H]5CC[C@]43C)[C@@H]12
Reply | 3

###

assay-remarks: Solubility in aqueous media
Type: physicochemical
measured-endpoint: solubility

Ask | Any idea what its solubility is? The molecule is C=C(C)[C@@H]1CC[C@]2(NCCN3CCS(=O)(=O)CC3)CC[C@]3(C)[C@H](CC[C@@H]4[C@@]5(C)CC=C(c6ccc(C(=O)O)cc6)C(C)(C)[C@@H]5CC[C@]43C)[C@@H]12
Reply | < 1 µg/mL

Source listed as paper PMC5848258.
